// values below are reported growth
System: NCI-H522 lung
Assay: NCI-60 one-dose screen, 48 h (100 = growth as untreated, 0 = no growth, -100 = all killed)
Details: 10 µM unless noted
Method: Growth inhibition of the NCI-H522 human Non-Small Cell Lung tumor cell line is measured as a screen for anti-cancer activity. Cells are grown in 96 well plates and exposed to the test compound for 48 hours. Compounds are tested at a single concentration, which is 10^-5 M for most compounds. The reported endpoint is percent growth (GI% or GIPRCNT), where numbers from 0 - 100% represent growth inhibition, and numbers from -100% - 0 represent cell death. […]
The panel holds about 83,000 compounds, 20% with a hit somewhere; the sample as a whole holds those more often.
parameterMeasured: growth (%)

molecule	parameterMeasured	unitSymbol	recordedResult
Cc1ccc2oc(=O)c3c(c2c1)OC(N)=C(C#N)C3c1ccco1 (configuration not stated)	growth	%	91.6
O=C(CCF)c1ccc(O)cc1	growth	%	87.6
Cc1ccc(C(=O)C2CN(C)CCC2(O)c2ccc(C)cc2)cc1 (configuration not stated)	growth	%	111
COC[CH2][Hg][C]#[C][Hg][CH2]COC	growth	%	96.9
O=C(CCc1ccco1)NC1CCN(CC2(c3ccc(Cl)cc3)CCC2)CC1	growth	%	-22.2
NC(=O)C(Cl)Cl	growth	%	109
c1ccc2nc(OCCN3CC3)ccc2c1	growth	%	47.1
Cn1cnnc1[S-].[Au+].c1ccc([PH+](c2ccccc2)c2ccccc2)cc1	growth	%	-75
Cc1cc(CCl)c(C)cc1CCl	growth	%	55.5
n1nc(-c2nonc2-c2nn[nH]n2)n[nH]1	growth	%	101
CC(C)N=C(NC(C)C)N1CC1	growth	%	98.2
COc1ccc(C(c2ccc(OC)cc2)C(Cl)(Cl)Cl)cc1	growth	%	60
Clc1ccc(SSC(Cl)(Cl)Cl)cc1	growth	%	107
CCCCn1cc(C(=O)/C(C#N)=C/c2cc3ccccc3nc2Cl)c2cc(OC)ccc21	growth	%	99.6
ClCCN(CCCl)c1nc(Cl)c(C2CC(c3ccc(Cl)cc3)=NN2c2cc(Cl)cc(Cl)c2)s1 (configuration not stated)	growth	%	80
O=C1NC(=S)NC(=O)C1=Cc1ccccc1	growth	%	117
Cc1cc(NC(=O)CCc2ccc(N3C(N)=NC(N)=NC3(C)C)cc2)ccc1S(=O)(=O)F	growth	%	-17.2
C[C@]12CC[C@@H]3C4=C(CC[C@H]3[C@@H]1CC[C@@H]2O)CC(=O)CC4	growth	%	90.8
CCC(C)[C@H]1O[C@]2(C=C[C@@H]1C)C[C@@H]1C[C@@H](C/C=C(\C)[C@@H](OC3C[C@H](OC)C(O[C@H]4C[C@H](OC)[C@@H](O)[C@H](C)O4)[C@H](C)O3)[C@@H](C)/C=C/C=C3\CO[C@@H]4[C@H](O)C(C)=C[C@@H](C(=O)O1)[C@]34O)O2 (some centres not stated)	growth	%	-28.8
COc1cc(N(CCCl)CCCl)ccc1C=Nc1ccccc1C(=O)O	growth	%	32.8
CCC[CH2][Sn]([CH2]CCC)([CH2]CCC)[O]C(=O)c1ccc(Cl)cc1Cl	growth	%	-73.3
COc1ccccc1N1CCN(CCc2c[nH]c3cc4c(cc23)OCO4)CC1	growth	%	72
